molecular target: T1, Dimeric fibrinogen-like domain of mouse (Mus musculus) Ang-2 conjugated to human IgG1 (mouse (Mus musculus)); assay: SPR, hIgG1 antibody captured, room temp
T1 construct: also called Dimeric Mouse Ang-2FD; Mouse Ang-2FD-hFc
T1 sequence (chain, as listed by the source limits assumed): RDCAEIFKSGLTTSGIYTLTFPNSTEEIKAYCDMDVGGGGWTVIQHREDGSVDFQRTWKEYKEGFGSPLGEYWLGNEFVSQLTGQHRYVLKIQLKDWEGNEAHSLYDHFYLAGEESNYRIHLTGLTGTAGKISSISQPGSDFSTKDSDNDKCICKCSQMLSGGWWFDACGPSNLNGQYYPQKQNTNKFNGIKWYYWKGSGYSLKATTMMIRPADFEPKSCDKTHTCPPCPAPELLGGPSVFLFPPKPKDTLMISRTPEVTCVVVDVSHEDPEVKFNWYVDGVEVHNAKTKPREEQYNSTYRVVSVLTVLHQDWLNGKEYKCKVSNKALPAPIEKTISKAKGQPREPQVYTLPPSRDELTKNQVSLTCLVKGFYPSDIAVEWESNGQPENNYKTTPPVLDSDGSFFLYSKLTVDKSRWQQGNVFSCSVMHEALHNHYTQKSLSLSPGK
Readings of T1/2 for the listed binders
Field: numeric (min). Do not append units.

Previously resolved entries follow.
1. H1H744N (antibody, V domains shown) VH: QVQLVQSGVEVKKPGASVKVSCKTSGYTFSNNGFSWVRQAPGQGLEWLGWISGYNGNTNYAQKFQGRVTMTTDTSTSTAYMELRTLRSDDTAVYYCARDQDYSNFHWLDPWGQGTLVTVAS VL: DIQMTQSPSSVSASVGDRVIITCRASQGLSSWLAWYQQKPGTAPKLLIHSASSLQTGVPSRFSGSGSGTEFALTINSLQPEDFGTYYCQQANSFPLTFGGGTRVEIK = 115
2. H1H695P (antibody, V domains shown) VH: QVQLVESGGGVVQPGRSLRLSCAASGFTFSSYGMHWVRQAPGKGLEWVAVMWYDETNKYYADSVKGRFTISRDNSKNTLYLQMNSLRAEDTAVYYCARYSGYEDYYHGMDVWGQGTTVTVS VL: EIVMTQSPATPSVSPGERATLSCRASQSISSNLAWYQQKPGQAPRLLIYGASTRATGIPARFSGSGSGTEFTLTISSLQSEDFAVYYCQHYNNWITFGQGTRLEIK = 124
3. H1H742N (antibody, V domains shown) VH: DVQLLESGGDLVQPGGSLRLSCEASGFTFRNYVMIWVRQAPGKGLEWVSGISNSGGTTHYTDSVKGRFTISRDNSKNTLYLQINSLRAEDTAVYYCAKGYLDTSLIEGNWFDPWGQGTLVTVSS VL: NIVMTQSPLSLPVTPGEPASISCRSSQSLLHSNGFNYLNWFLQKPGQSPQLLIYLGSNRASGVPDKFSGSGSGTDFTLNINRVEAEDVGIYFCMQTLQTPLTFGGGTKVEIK = 58
4. H1H685P (antibody, V domains shown, also called mAb1) VH: EVQLVESGGGLVQPGGSLRLSCAASGFTFSSYDIHWVRQATGKGLEWVSAIGPAGDTYYPGSVKGRFTISRENAKNSLYLQMNSLRAGDTAVYYCARGLITFGGLIAPFDYWGQGTLVTVSS VL: EIVLTQSPGTLSLSPGERATLSCRASQSVSSTYLAWYQQKPGQAPRLLIYGASSRATGIPDRFSGSGSGTDFTLTISRLEPEDFAVYYCQHYDNSQTFGQGTKVEIK = 129
5. H1H704P (antibody, V domains shown) VH: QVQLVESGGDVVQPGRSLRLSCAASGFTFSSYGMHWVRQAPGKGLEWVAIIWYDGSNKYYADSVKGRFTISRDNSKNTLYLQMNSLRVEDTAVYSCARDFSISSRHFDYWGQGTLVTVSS VL: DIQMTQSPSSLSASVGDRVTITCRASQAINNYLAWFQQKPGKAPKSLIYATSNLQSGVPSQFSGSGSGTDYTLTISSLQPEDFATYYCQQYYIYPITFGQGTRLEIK = 61.9

For H1H690P (antibody, V domains shown) VH: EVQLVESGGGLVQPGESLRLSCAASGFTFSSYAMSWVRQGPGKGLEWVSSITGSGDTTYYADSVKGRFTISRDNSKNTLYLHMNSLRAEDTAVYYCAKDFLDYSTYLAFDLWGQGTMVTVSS VL: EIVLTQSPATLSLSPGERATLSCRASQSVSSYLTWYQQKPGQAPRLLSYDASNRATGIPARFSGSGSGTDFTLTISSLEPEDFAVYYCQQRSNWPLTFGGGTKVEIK , what is its reported T1/2?
105

Similarly, H1H743N (antibody, V domains shown) VH: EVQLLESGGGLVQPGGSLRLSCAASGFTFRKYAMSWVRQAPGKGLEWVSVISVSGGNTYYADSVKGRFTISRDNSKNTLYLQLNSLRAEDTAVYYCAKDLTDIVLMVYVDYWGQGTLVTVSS VL: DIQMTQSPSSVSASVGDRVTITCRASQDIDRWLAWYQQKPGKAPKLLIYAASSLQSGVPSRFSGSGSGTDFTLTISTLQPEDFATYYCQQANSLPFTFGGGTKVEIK ?
233

Similarly, H1H750N (antibody, V domains shown) VH: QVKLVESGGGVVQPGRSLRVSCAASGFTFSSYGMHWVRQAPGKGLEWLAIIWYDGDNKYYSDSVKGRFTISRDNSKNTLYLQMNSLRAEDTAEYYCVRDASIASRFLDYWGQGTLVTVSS VL: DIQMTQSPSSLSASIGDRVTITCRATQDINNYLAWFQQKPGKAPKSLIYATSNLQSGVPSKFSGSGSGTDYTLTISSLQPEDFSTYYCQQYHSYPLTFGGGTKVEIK ?
121

Similarly, H1H732N (antibody, V domains shown) VH: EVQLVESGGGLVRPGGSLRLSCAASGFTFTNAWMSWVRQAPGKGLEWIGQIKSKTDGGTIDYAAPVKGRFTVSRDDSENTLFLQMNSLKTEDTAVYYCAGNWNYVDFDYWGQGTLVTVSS VL: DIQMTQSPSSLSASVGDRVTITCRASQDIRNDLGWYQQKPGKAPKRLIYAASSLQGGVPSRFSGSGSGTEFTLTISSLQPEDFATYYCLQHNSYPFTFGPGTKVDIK ?
51

Similarly, H1H706P (antibody, V domains shown) VH: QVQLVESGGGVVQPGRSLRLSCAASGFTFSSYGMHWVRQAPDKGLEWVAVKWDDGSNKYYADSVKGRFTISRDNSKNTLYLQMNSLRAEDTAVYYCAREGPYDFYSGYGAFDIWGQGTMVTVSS VL: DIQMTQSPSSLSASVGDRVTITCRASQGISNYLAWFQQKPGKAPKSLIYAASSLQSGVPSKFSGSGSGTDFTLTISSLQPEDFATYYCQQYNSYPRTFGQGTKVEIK ?
47
